Give kon for every item shown.
# system.under.test: T1, sIL-6R (soluble IL-6 receptor; SBH Sciences) (human, UniProt P08887 20-365)
# T1 construct: also called human IL-6R
# T1 sequence: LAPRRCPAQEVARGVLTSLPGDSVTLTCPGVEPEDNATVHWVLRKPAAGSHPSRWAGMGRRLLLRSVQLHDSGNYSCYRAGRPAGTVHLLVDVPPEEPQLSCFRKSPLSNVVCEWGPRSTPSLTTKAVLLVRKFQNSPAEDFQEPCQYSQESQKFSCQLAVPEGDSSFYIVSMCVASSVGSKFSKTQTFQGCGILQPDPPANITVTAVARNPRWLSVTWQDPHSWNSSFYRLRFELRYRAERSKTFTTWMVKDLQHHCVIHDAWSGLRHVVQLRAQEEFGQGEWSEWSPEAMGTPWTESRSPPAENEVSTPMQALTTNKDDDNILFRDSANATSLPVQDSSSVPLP
# method.description: SPR (BIAcore 3000), antibody on chip, sIL-6R analyte, 25 C
Report as a plain number; the unit M⁻¹ s⁻¹ is understood.

State the recorded kon for this entry: 208# (antibody, human IgG1, kappa, V domains shown, also called Sample # 208) VH: QVQLQESGPGLVRPSQTLSLTCTVSGYSITSDHAWSWVRQPPGRGLEWIGFISYSGMTTYNPSLKSRVTMLRDTSKNQFSLRLSSVTAADTAVYYCARSLARATAMDYWGQGSLVTVSS VL: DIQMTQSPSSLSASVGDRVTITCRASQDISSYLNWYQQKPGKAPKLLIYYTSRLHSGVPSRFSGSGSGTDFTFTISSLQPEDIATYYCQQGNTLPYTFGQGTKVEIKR
221000

State the recorded kon for this entry: 51# (antibody, human IgG1, kappa, V domains shown, also called Sample # 51) VH: QVQLQESGPGLVRPSQTLSLTCTVSGYSITSDHAWSWVRQPPGRGLEWIGYISYSGITTYNPSLKSRVTMLRDTSKNQFSLRLSSVTAADTAVYYCARCLARMTAMDYWGQGSLVTVSS VL: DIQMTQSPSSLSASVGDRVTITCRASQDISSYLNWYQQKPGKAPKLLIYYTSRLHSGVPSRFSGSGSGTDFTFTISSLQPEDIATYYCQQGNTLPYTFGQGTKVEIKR
136000

State the recorded kon for this entry: 49# (antibody, human IgG1, kappa, V domains shown, also called Sample # 49) VH: QVQLQESGPGLVRPSQTLSLTCTVSGYSITSDHAWSWVRQPPGRGLEWIGYISYSGITTYNASLKSRVTMLRDTSKNQFSLRLSSVTAADTAVYYCARSLARTTAMDYWGQGSLVTVSS VL: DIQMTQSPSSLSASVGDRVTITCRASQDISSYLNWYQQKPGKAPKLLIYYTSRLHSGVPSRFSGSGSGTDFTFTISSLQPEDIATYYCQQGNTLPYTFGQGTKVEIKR
132000
